Listing of recorded DC50 by entry.
Molecular target: KRas G12D fused to HiBiT peptide (Homo sapiens, UniProt P01116, G12D)
Construct: endogenous in cells; host or cells: AsPC-1 HiBiT knock-in single clone (Cas9 RNP + ssODN)
Sequence (P01116 1-188 isoform P01116-2 G12D): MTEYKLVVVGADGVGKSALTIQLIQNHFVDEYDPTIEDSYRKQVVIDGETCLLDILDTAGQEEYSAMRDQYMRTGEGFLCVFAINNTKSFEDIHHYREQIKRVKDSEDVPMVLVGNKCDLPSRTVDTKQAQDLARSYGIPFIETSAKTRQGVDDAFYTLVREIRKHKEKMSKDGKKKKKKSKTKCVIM
Assay: ASPC-1 HiBit assay to determine G12D degradation
Format: cell-based
Details: AsPC-1 HiBiT cells, 24-hour incubation; read-out: ASPC-1 HiBit DC50 (C)

Use the examples below as a reference point.
structure smiles: CC(C)[C@H](C(=O)N1C[C@H](O)C[C@H]1C(=O)N[C@@H](C)c1ccc(-c2c(F)cc(F)cc2F)cc1)c1cc(N2CC3(CCN(CCOc4nc(N5CC6CCC(C5)N6)c5cc(Cl)c(-c6ccc(F)c7sc(N)c(C#N)c67)c(F)c5n4)CC3)C2)no1
subject of test: KRas G12D fused to HiBiT peptide (Homo sapiens, UniProt P01116, G12D)
recorded endpoint: DC50
result: ≥ 10000 nM
--
structure smiles: C#Cc1c(F)ccc2cc(O)cc(-c3ncc4c(N5CC6CCC(C5)N6)nc(OCCN5CCC6(CC5)CN(c5cc([C@H](C(=O)N7C[C@H](O)C[C@H]7C(=O)N[C@@H](C)c7ccc(-c8c(F)cccc8F)cc7)C(C)C)on5)C6)nc4c3F)c12
subject of test: KRas G12D fused to HiBiT peptide (Homo sapiens, UniProt P01116, G12D)
recorded endpoint: DC50
result: 69.7 nM
--
structure smiles: C#Cc1c(F)ccc2cc(O)cc(-c3ncc4c(N5CC6CCC(C5)N6)nc(OCCN5CCC(Oc6cc([C@H](C(=O)N7C[C@H](O)C[C@H]7C(=O)N[C@@H](C)c7ccc(-c8c(F)cccc8F)cc7)C(C)C)on6)CC5)nc4c3F)c12
subject of test: KRas G12D fused to HiBiT peptide (Homo sapiens, UniProt P01116, G12D)
recorded endpoint: DC50
result: 197 nM

Now look at this one.
Return the recorded DC50 value; entry: CC(C)[C@@H](C(=O)N1C[C@H](O)C[C@H]1C(=O)N[C@@H](C)c1ccc(-c2c(F)cccc2F)cc1)c1cc(OCC2CCN(CCOc3nc(N4CC5CCC(C4)N5)c4cc(Cl)c(-c5ccc(F)c6sc(N)c(C#N)c56)c(F)c4n3)CC2)no1
244 nM

====

Target: KRAS (WT) (Homo sapiens, UniProt P01116)
Construct: Biotinylated KRAS protein amino acids 1-169 (produced at Erasca); made in house
Sequence (P01116 1-169 isoform P01116-2): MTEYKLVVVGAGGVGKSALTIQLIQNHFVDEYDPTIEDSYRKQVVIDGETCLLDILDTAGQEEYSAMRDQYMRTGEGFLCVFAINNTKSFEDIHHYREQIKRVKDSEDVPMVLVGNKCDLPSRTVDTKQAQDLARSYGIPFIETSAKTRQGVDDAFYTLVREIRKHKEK
Test: In-vitro RAS-RAF binding assay (RRB), HTRF/FRET
Format: biochemical
Conditions: Table 2, average of multiple runs of each compound; read-out: Inhibition of RAS-RAF Binding (in-vitro) KRAS (WT) IC50
recorded endpoint: pIC50
The read-out pIC50 is expressed as -log10 of concentration in moles per litre.

Examples with answers:
structure smiles: C#Cc1c(F)ccc2cc(O)cc(-c3ncc4c(N5CC6CCC(C5)N6)nc(OC[C@@H]5CCCN5CCCOCCC(=O)N[C@H](C(=O)N5C[C@H](O)C[C@H]5C(=O)N[C@@H](C)c5ccc(-c6c(F)cccc6C(F)(F)F)cc5)C(C)(C)C)nc4c3F)c12
recorded endpoint: pIC50
measured number: 7.42

structure smiles: CC(C)[C@@H](C(=O)N1C[C@H](O)C[C@H]1C(=O)N[C@@H](C)c1ccc(-c2c(F)cccc2F)cc1)c1cc(OCC2(C)CCN(CCOc3nc(N4CC5CCC(C4)N5)c4cc(C(F)(F)F)c(-c5ccc(F)c6sc(N)c(C#N)c56)c(F)c4n3)CC2)no1
recorded endpoint: pIC50
measured number: 6.02

structure smiles: C#Cc1c(F)ccc2cc(O)cc(-c3ncc4c(N5CC6CCC(C5)N6)nc(OCCN5CCC(COc6cc([C@H](C(=O)N7C[C@H](O)C[C@H]7C(=O)N[C@@H](C)c7ccc(-c8scnc8C)cc7)C(C)C)on6)CC5)nc4c3F)c12
recorded endpoint: pIC50
measured number: 6.72

structure smiles: C#Cc1c(F)ccc2cc(O)cc(-c3ncc4c(N5CC6CCC(C5)N6)nc(OCCN5CCC(COc6cc([C@H](C(=O)N7C[C@H](O)C[C@H]7C(=O)N[C@@H](C)c7ccc(-c8c(F)cccc8F)cc7)C(C)C)on6)CC5)nc4c3F)c12
recorded endpoint: pIC50
measured number: 5.88

Consider the additional compound presented here.
Annotate the compound CC(C)[C@H](C(=O)N1C[C@H](O)C[C@H]1C(=O)N[C@@H](C)c1ccc(-c2c(F)cc(F)cc2F)cc1)c1cc(N2CC3(CCN(CCOc4nc(N5CC6CCC(C5)N6)c5cc(Cl)c(-c6ccc(F)c7sc(N)c(C#N)c67)c(F)c5n4)CC3)C2)no1 with its measured pIC50.
5.30

====

# key: entry, value: DC50
Target: KRas G12D fused to HiBiT peptide (Homo sapiens, UniProt P01116, G12D)
Construct: endogenous in cells; host or cells: AsPC-1 HiBiT knock-in single clone (Cas9 RNP + ssODN)
Experiment: ASPC-1 HiBit assay to determine G12D degradation
Type: cell-based
Details: AsPC-1 HiBiT cells, 24-hour incubation; read-out: ASPC-1 HiBit DC50 (C)
Number first, unit second.

compound: C[C@H](NC(=O)[C@@H]1C[C@@H](O)CN1C(=O)[C@@H](NC(=O)CCOCCCN1CCCC1COc1nc(N2CC3CCC(C2)N3)c2cc(Cl)c(-c3ccc(F)c4sc(N)c(C#N)c34)c(F)c2n1)C(C)(C)C)c1ccc(-c2c(F)cccc2F)cc1 (stereo partly shown) [Example 19]
subject of test: KRas G12D fused to HiBiT peptide (Homo sapiens, UniProt P01116, G12D)
recorded endpoint: DC50
result: 63.2 nM
--
compound: C#Cc1c(F)ccc2cc(O)cc(-c3ncc4c(N5CC6CCC(C5)N6)nc(OCCN5CCC(COc6cc([C@H](C(=O)N7C[C@H](O)C[C@H]7C(=O)N[C@@H](C)c7ccc(-c8c(F)cccc8F)cc7)C(C)C)on6)CC5)nc4c3F)c12 [Example 15]
subject of test: KRas G12D fused to HiBiT peptide (Homo sapiens, UniProt P01116, G12D)
recorded endpoint: DC50
result: 112 nM
--
compound: CC(C)[C@@H](C(=O)N1C[C@H](O)C[C@H]1C(=O)N[C@@H](C)c1ccc(-c2c(F)cc(F)cc2F)cc1)c1cc(N2CC3(CCN(CCOc4nc(N5CC6CCC(C5)N6)c5cc(C(F)(F)F)c(-c6ccc(F)c7sc(N)c(C#N)c67)c(F)c5n4)CC3)C2)no1 [Example 75]
subject of test: KRas G12D fused to HiBiT peptide (Homo sapiens, UniProt P01116, G12D)
recorded endpoint: DC50
result: 843 nM

Please turn your attention to the following entry.
Return the recorded DC50 value; entry: CC(C)[C@@H](C(=O)N1C[C@H](O)C[C@H]1C(=O)N[C@@H](C)c1ccc(-c2c(F)cc(F)cc2F)cc1)c1cc(OCC2(F)CCN(CCOc3nc(N4CC5CCC(C4)N5)c4cc(Cl)c(-c5ccc(F)c6sc(N)c(C#N)c56)c(F)c4n3)CC2)no1 [Example 69]
525 nM

====

Biological target: KRAS (WT) (Homo sapiens)
Construct: Biotinylated KRAS protein amino acids 1-169 (produced at Erasca); made in house
Assay: In-vitro RAS-RAF binding assay (RRB), HTRF/FRET
Format: biochemical
Conditions: Table 2, average of multiple runs of each compound; read-out: Inhibition of RAS-RAF Binding (in-vitro) KRAS (WT) IC50
recorded endpoint: IC50 (nM)
Hi! Could you send only the number? It should be in nM, unit omitted.

structure smiles: C[C@H](NC(=O)[C@@H]1C[C@@H](O)CN1C(=O)[C@@H](NC(=O)CCOCCCN1CCC[C@H]1COc1nc(N2CC3CCC(C2)N3)c2cc(C(F)(F)F)c(-c3ccc(F)c4sc(N)c(C#N)c34)cc2n1)C(C)(C)C)c1ccc(-c2c(F)cccc2F)cc1
subject of test: KRAS (WT) (Homo sapiens)
unit of measure: nM
IC50: 162

Please examine the following record next.
Write down IC50 measured for item C#Cc1c(F)ccc2cc(O)cc(-c3ncc4c(N5CC6CCC(C5)N6)nc(OC[C@@H]5CCCN5CCCOCCC(=O)N[C@H](C(=O)N5C[C@H](O)C[C@H]5C(=O)N[C@@H](C)c5ccc(-c6c(F)cccc6F)cc5)C(C)(C)C)nc4c3F)c12
41.9
